Source of measurements: ChEMBL document CHEMBL4418490

- test.description: Plasma concentration in C215 transfected MC38 cells implanted C57BL/6 mouse assessed as N-(5-bromo-3-hydroxypyrazin-2-yl)-1-(3,4-dichlorophenyl)methanesulfonamide level at 1 mg/kg, iv dosed as cassette formulation and measured at 7 hrs after post dose by LC-MS analysis
- Type: ADME, organism-based
- assay.context: in vivo
reported.property: concentration (nM)

* COc1nc(Br)cnc1NS(=O)(=O)Cc1ccc(Cl)c(Cl)c1 | 200

###

- test.description: Plasma concentration in C215 transfected MC38 cells implanted C57BL/6 mouse assessed as 2,5-dichloro-N-(6-chloro-4-hydroxypyridin-3-yl)thiophene-3-sulfonamide level at 1 mg/kg, iv dosed as cassette formulation and measured at 0.5 hrs after post dose by LC-MS analysis
- Assay type: ADME, organism-based
- assay.context: in vivo
reported.property: concentration (nM)

- COc1cc(Cl)ncc1NS(=O)(=O)c1cc(Cl)sc1Cl: 200
